Sourced from paper PMC12369479

- ASSAYED_SYSTEM: ZmADK3 N295A variant (Zea mays, UniProt A0A1D6E5Z5, N295A)
- Sequence (A0A1D6E5Z5 entry or part of it N295A): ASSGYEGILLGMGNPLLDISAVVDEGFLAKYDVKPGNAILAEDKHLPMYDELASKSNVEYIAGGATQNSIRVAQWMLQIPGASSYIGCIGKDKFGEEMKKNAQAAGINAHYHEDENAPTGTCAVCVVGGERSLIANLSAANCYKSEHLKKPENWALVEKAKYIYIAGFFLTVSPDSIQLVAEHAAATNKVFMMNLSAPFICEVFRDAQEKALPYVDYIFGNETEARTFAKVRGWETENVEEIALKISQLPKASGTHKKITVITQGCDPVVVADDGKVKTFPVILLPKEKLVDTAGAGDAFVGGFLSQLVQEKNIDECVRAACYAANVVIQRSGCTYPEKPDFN
- TEST_METHOD_NOTES: Binding affinity by MST
- MEASUREMENT_CONDITIONS: N295A; MST; read-out: KD ATP
PROPERTY_NAME: Kd (mM)

{"COMPOUND": "Nc1ncnc2c1ncn2[C@@H]1O[C@H](COP(=O)(O)OP(=O)(O)OP(=O)(O)O)[C@@H](O)[C@H]1O [ATP]", "NUMERIC_RESULT": 41.8}

====

- ASSAYED_SYSTEM: PpADK1 (Physcomitrium patens, UniProt O49923)
- Construct: made in house; host or cells: E. coli T7 Express Iq
- Sequence (O49923 whole entry): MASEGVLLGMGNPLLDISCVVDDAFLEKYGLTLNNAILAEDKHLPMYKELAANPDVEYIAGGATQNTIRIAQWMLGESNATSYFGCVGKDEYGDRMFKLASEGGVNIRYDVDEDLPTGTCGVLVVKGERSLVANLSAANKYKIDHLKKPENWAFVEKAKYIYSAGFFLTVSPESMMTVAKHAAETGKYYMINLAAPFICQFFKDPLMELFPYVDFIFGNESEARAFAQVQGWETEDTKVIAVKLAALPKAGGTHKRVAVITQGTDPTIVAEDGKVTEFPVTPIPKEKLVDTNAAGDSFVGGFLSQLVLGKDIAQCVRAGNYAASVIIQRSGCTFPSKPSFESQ
- TEST_METHOD_NOTES: Binding affinity by microscale thermophoresis (MST)
- Parameters: species or system Physcomitrella patens
- MEASUREMENT_CONDITIONS: KD, 50 mM HEPES pH 7.5, 1 mM MgCl2, first or only binding event

{"COMPOUND": "CC(C)=CCNc1ncnc2c1ncn2C1OC(CO)C(O)C1O (stereo not shown)", "Kd": "5.5 µM"}

====

- ASSAYED_SYSTEM: ZmADK3 E225A variant (Zea mays, UniProt A0A1D6E5Z5, E225A)
- Sequence (A0A1D6E5Z5 entry or part of it E225A): as the sequence (A0A1D6E5Z5 entry or part of it N295A) above, with E224A, A294N counted along it
- TEST_METHOD_NOTES: Binding affinity by MST
- MEASUREMENT_CONDITIONS: E225A; MST; read-out: KD ATP
- Description: All ZmADK3 mutants were cloned by 30 cycle PCRs using tail-to-tail oriented phosphorylated primers, with the mutation being located at the 5′ end of one of the primers. […] The microscale thermophoresis (MST) method was used to determine the binding affinity of various ribosides for ZmADK2 and PpADK1. […] Measurements were performed in premium capillaries on a Monolith NT.115 instrument at 30 °C with 5 s/30 s/5 s laser off/on/off times, respectively, with continuous sample fluorescence recording. […]
PROPERTY_NAME: Kd (mM)

{"MOLECULE": "Nc1ncnc2c1ncn2[C@@H]1O[C@H](COP(=O)(O)OP(=O)(O)OP(=O)(O)O)[C@@H](O)[C@H]1O [ATP]", "ASSAYED_SYSTEM": "ZmADK3 E225A variant (Zea mays, UniProt A0A1D6E5Z5, E225A)", "UNIT_ABBREV": "mM", "NUMERIC_RESULT": 16}

====

- ASSAYED_SYSTEM: PpADK2 (Physcomitrium patens)
- Sequence (A9RF27 entry or part of it): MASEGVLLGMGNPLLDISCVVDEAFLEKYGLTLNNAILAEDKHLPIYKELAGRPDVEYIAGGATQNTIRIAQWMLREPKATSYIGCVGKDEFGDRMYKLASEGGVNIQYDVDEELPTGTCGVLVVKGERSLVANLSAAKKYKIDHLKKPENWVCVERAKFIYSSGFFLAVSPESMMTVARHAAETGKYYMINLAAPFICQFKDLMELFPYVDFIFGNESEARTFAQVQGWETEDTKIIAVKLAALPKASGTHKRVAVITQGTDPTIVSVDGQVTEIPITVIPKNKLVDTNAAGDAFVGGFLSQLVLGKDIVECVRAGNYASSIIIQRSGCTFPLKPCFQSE
- TEST_METHOD_NOTES: ADK activity, coupled reaction with PK and LDH
- MEASUREMENT_CONDITIONS: 100 µM substrate, 10 mM ATP, pH 7.5, 30 °C
PROPERTY_NAME: Specific activity (nmol s^–1 mg^–1)

{"COMPOUND": "CNc1ncnc2c1ncn2[C@@H]1O[C@H](CO)[C@@H](O)[C@H]1O [N ^6-MethylAdo, 6-methylamino-9H-purine-9-β-D-riboside]", "NUMERIC_RESULT": 0.86}
{"COMPOUND": "CN(C)c1ncnc2c1ncn2[C@@H]1O[C@H](CO)[C@@H](O)[C@H]1O [N ^6,N^6-DimethylAdo]", "NUMERIC_RESULT": 0.86}
{"COMPOUND": "C/C(=C\\CNc1ncnc2c1ncn2[C@@H]1O[C@H](CO)[C@@H](O)[C@H]1O)CO (relative stereo) [tZR, trans-zeatin riboside]", "NUMERIC_RESULT": 0.83}
{"COMPOUND": "CC(C)=CCNc1ncnc2c1ncn2C1OC(CO)C(O)C1O (centres unmarked) [iPR, N ^6-isopentenyl adenosine]", "NUMERIC_RESULT": 0.83}
{"COMPOUND": "CC(C)Nc1ncnc2c1ncn2[C@@H]1O[C@H](CO)[C@@H](O)[C@H]1O [N ^6-IsopropylAdo]", "NUMERIC_RESULT": 0.83}
{"COMPOUND": "Nc1ncnc2c1ncn2[C@@H]1O[C@H](CO)[C@@H](O)[C@H]1O [Ado, adenosine]", "NUMERIC_RESULT": 4.70}
{"COMPOUND": "CC(C)CNc1ncnc2c1ncn2[C@@H]1O[C@H](CO)[C@@H](O)[C@H]1O [N ^6-IsobutylAdo]", "NUMERIC_RESULT": 0.75}
{"COMPOUND": "OC[C@H]1O[C@@H](n2cnc3c(NCc4ccccc4)ncnc32)[C@H](O)[C@@H]1O [BAPR, 6-benzylaminopurine riboside]", "NUMERIC_RESULT": 0.89}
